- testSystem: β5c of hu c-20S (Homo sapiens (Human), UniProt P20618+P28074)
- testProtocol: IC50 determination against β5c of human constitutive proteasome (suc-LLVY-AMC hydrolysis)
- Assay type: biochemical
- experimentalSetup: 0.2 nM c-20S, 25 μM suc-LLVY-AMC
Quick rule for you: IC50 under 10 µM gets MET, anything else gets NOT MET.

Check out these entries, answers already filled in.
{"compound": "O=C1CCCCCCCCCC[C@@H](C(=O)NCc2cccc3ccccc23)NC(=O)[C@H](CC(=O)N2CCCC2)N1", "label": "NOT MET"}
{"compound": "COCCC(=O)N[C@H]1Cc2cccc(c2)Oc2cccc(c2)C[C@@H](C(=O)NCc2cccnc2)NC(=O)[C@H](CCc2ccccc2)NC1=O", "label": "MET"}
{"compound": "O=C1CCCCCCCCOC[C@@H](C(=O)NCc2cccc3ccccc23)NC(=O)[C@H](CC(=O)N2CCCC2)N1", "label": "MET"}
{"compound": "O=C(CO)N[C@H]1Cc2cccc(c2)Oc2cccc(c2)C[C@@H](C(=O)NC2CCCC2)NC(=O)[C@H](CCc2ccccc2)NC1=O", "label": "MET"}
{"compound": "O=C(NCC1CC1)[C@@H]1CCCCOc2cccc(c2)C[C@H](N2CCCC2=O)C(=O)N[C@@H](CCN2CCOCC2)C(=O)N1", "label": "NOT MET"}
{"compound": "O=C(CC(F)(F)F)N[C@H]1Cc2cccc(c2)Oc2cccc(c2)C[C@@H](C(=O)NCC(F)(F)F)NC(=O)[C@H](CCc2ccccc2)NC1=O", "label": "NOT MET"}
{"compound": "O=C1CCc2cccc(c2)OCCCC[C@@H](C(=O)NCc2ccccc2F)NC(=O)[C@H](CC(=O)N2CCCC2C2CC2)N1 (single isomer, unassigned) [Compound 3-46-A]", "label": "MET"}
{"compound": "CC(C)CNC(=O)[C@@H]1Cc2cccc(c2)Oc2cccc(c2)C[C@H](NC(=O)c2cn(C)cn2)C(=O)N[C@@H](CCc2ccccc2)C(=O)N1", "label": "MET"}
{"compound": "CCN(CC)[C@H]1Cc2cccc(c2)Oc2cccc(c2)C[C@@H](C(=O)NCc2cnn(C)c2)NC(=O)[C@H](CCc2ccccc2)NC1=O", "label": "MET"}
{"compound": "O=C(N[C@H]1Cc2cccc(c2)Oc2cccc(c2)C[C@@H](C(=O)NCC(F)(F)F)NC(=O)[C@H](CCc2ccccc2)NC1=O)C1CC1", "label": "NOT MET"}

Record O=C1CCc2cccc(c2)Oc2cccc(c2)C[C@@H](C(=O)NCc2ccccc2F)NC(=O)[C@H](CCN2CCOCC2)N1 : is its IC50 strictly below 10 µM?
MET

Record O=C(N[C@H]1Cc2cccc(c2)Oc2cccc(c2)C[C@@H](C(=O)NCC2CCOCC2)NC(=O)[C@H](CCc2ccccc2)NC1=O)c1cccnn1 : is its IC50 strictly below 10 µM?
NOT MET

Record COCCNC(=O)[C@@H]1Cc2cccc(c2)Oc2cccc(c2)C[C@H](NC(=O)c2cccnc2)C(=O)N[C@@H](CCc2ccccc2)C(=O)N1 : is its IC50 strictly below 10 µM?
MET

====

Parameter IC50: see the listing below.
- testSystem: β5c of hu c-20S (Homo sapiens (Human), UniProt P20618+P28074)
- testProtocol: IC50 determination against β5c of human constitutive proteasome (suc-LLVY-AMC hydrolysis);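 note: IC50 obtained by fitting initial reaction velocities to a dose-dependent inhibition model, with SDS present as proteasome activator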
- Assay type: biochemical
- experimentalSetup: 0.2 nM c-20S, 25 μM suc-LLVY-AMC

Recorded results for 3 molecules are shown here.
{"smilesNotation": "Cn1cc(CNC(=O)[C@@H]2Cc3cccc(c3)Oc3cccc(c3)C[C@H](NS(C)(=O)=O)C(=O)N[C@@H](CCc3ccccc3)C(=O)N2)cn1", "testSystem": "β5c of hu c-20S (Homo sapiens (Human), UniProt P20618+P28074)", "IC50": "> 100 µM"}
{"smilesNotation": "O=C1CCC/C=C\\CCCCC[C@@H](C(=O)NCc2cccc3ccccc23)NC(=O)[C@H](CC(=O)N2CCCC2)N1", "testSystem": "β5c of hu c-20S (Homo sapiens (Human), UniProt P20618+P28074)", "IC50": "> 100 µM"}
{"smilesNotation": "CCN[C@H]1Cc2cccc(c2)Oc2cccc(c2)C[C@@H](C(=O)NC2CCCC2)NC(=O)[C@H](CCc2ccccc2)NC1=O", "testSystem": "β5c of hu c-20S (Homo sapiens (Human), UniProt P20618+P28074)", "IC50": "100 µM"}

Okay, next one:
Recorded IC50 for O=C1CCCCCCCCCC[C@@H](C(=O)NCc2cccc3ccccc23)NC(=O)[C@H](CC(=O)N2CCC[C@@H]2c2ccccc2)N1 , please?
> 100 µM
